B1: TPR t1 (parent)
chain: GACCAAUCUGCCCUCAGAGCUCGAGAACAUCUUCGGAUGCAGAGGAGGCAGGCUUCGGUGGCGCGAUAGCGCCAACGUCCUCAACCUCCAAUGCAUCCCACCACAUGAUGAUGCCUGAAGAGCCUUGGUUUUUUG

# Variants of: B1
# assay explanation: polymerase ribozyme fitness, log enrichment relative to wild type (log ratio); higher = more active; in vitro selection for triplet polymerase activity
attribute measured: polymerase ribozyme fitness (log ratio)
Number only, no unit.

Ask | Check the records and state polymerase ribozyme fitness (log ratio) for C13A U78G C88A A105U
Reply | -4.55

Ask | Check the records and state polymerase ribozyme fitness (log ratio) for A27U G63C G71A C82G G113A U129A
Reply | -5.8

Ask | Check the records and state polymerase ribozyme fitness (log ratio) for C13A C76G C97U C102A C104U
Reply | -3.66

Ask | Check the records and state polymerase ribozyme fitness (log ratio) for U87A C89G
Reply | -2.18

Ask | Check the records and state polymerase ribozyme fitness (log ratio) for G51U G122A
Reply | -3.78
